Test system: HEK-293T
TEST_NAME: Multiplex assay against HEK293T
Format: toxicity, cell-based
COND: human, 12 h, 1 µM, compound concentration 1 uM, replicate 2
Recorded Population Membrane Permeable-Phenotype (%), one value per entry.

COMPOUND	RESULT
CN[C@@H]1C[C@H]2O[C@@](C)([C@@H]1OC)n1c3ccccc3c3c4c(c5c6ccccc6n2c5c31)C(=O)NC4	12%

Assign Population Membrane Permeable-Phenotype (%) to the following record: CN1C2CCC1CC(OC(c1ccc(F)cc1)c1ccc(F)cc1)C2.Cl (stereo unspecified)
18%

----------
Test system: U2OS
TEST_NAME: Multiplex assay against U2OS
Format: toxicity, cell-based
COND: human, 12 h, 1 µM, compound concentration 1 uM, replicate 1
Here, each record is paired with measured Population Normal (%) data.
Numbers only here, please. The scale is %.

A selection of reference data follows.
COMPOUND	MEASUREMENT_UNIT	Population Normal (%)
Cc1ccc(C(=O)Nc2cccc(C(F)(F)F)c2)cc1Nc1nc(-c2cccnc2)nc2c1cnn2C	%	89
O=C(Nc1cccnn1)N1CCC(=Cc2cccc(Oc3ccc(C(F)(F)F)cn3)c2)CC1	%	96
O=C(Nc1ccc(-c2ccnc(Nc3ccc(N4CCOCC4)cc3)n2)cc1)[C@@H]1CCCN1	%	96

Identify measured Population Normal (%) associated with CCOC(=O)c1c(C)[nH]c2ccc3c(c12)CN1CCc2cc(OC)ccc2C1O3 (configuration not stated)
94

Tell me measured Population Normal (%) for `Cc1cc(C)c(S(=O)(=O)N(Cc2ccc(-c3cccc(S(C)(=O)=O)c3)cc2)Cc2ccc(C(F)(F)F)o2)c(C)c1` please.
92

Quickly give me recorded Population Normal (%) for `Cl.O=C(c1ccc(Nc2nccc(-c3cc4ccccc4s3)n2)cc1)N1CCC(N2CCCC2)CC1`
98

Quickly give me recorded Population Normal (%) for CN1CCN(C(=O)C(C)(C)c2ccc(C(=O)Nc3cn4cc(-c5cc(C(C)(C)C)cc(C(C)(C)C)c5)ccc4n3)cc2)CC1 [T3-CLK-N]
91

Give recorded Population Normal (%). `COC(=N)c1nc2ccc3ncnc(Nc4ccc(OC)cc4F)c3c2s1`
91

Give the reported value of Population Normal (%) for this record: Cc1cn(-c2cc(NC(=O)c3ccc(C)c(Nc4nccc(-c5cccnc5)n4)c3)cc(C(F)(F)F)c2)cn1 [NILOTINIB]
91

Give a short answer stating reported Population Normal (%) for `CCNc1cc(N[C@H]2CC[C@H](O)CC2)nc(Nc2ccc3c(ccn3Cc3ccccc3)c2)n1` .
98

Input `CCc1cccc(CC)c1NC(=O)c1nn(C)c2c1CCc1cnc(Nc3ccc(C(=O)NC4CCN(C)CC4)cc3OC(F)(F)F)nc1-2` , output reported Population Normal (%).
90

Provide only the value of recorded Population Normal (%) for O=C1NC(=O)C(c2cnc3ccccn23)=C1c1cn2c3c(cc(F)cc13)CN(C(=O)N1CCCCC1)CC2 [LY-2090314]
91

Specify reported Population Normal (%) for the compound shown: `Cc1ccc2nc(NCCN)c3ncc(C)n3c2c1.O=C(O)C(F)(F)F.O=C(O)C(F)(F)F`
98

Tell me Population Normal (%) reported for COc1cccc2cc(-c3nc([C@H]4CC[C@H](C(=O)O)CC4)n4ncnc(N)c34)[nH]c12 [OSI-027]
98

Look up and state reported Population Normal (%) for O=C(Cc1ccc(-c2ccc(OCCN3CCOCC3)cc2)cn1)NCc1ccccc1 [TIRBANIBULIN]
92

Provide one value: measured Population Normal (%) of `CCCS(=O)(=O)c1nc(NC2CC2)cc(-c2ccc3c(ccn3C3CC(C)(C)NC(C)(C)C3)c2)n1`
93

Please indicate Population Normal (%) recorded for COc1ccc(-c2ccc3c(N4CCOCC4)nc(N4C[C@@H](C)O[C@@H](C)C4)nc3n2)cc1CO [Ku-0063794]
99

Data provenance is ChEMBL document CHEMBL4689842.
